Tested on: COLO 205
ASSAY_PROCEDURE: NCI tumour cell line growth inhibition, 48 h
Calls of active or inactive are those of the source. Cut-off read from the data, not from the text of the source: active = GI50 up to about 1.1 µM and inactive = higher.
Listing of entries alongside the reported GI50.

The following molecules have reported results that may help.
-- ask What does the record list as GI50 for CCOc1ncn(-c2ccc(NC(=S)NC34CC5CC(CC(C5)C3)C4)cc2)n1 ?
-- reply > 100 µM (inactive)

-- ask If you can, please state the reported GI50 value of C=CCNC(=O)NCCCCC(NC(C)=O)C(=O)NCc1ccccc1 (centres undefined) .
-- reply > 100 µM (inactive)

-- ask # input molecule: C=CC1(CC[C@]2(c3ccc(OC)c(OC)c3)C=[N+]([O-])O[C@H](O[C@@H]3CCCC[C@H]3C(C)(C)c3ccccc3)C2)OCC(C)(C)CO1 ; wanted: its GI50
-- reply 16.9 µM (inactive)

# evaluate next
-- ask Requested read-out: GI50. Entry: c1ccc(CN2C3C4N(Cc5ccccc5)C2C2N(Cc5ccccc5)C(C(N2Cc2ccccc2)N4Cc2ccccc2)N3Cc2ccccc2)cc1
-- reply > 100 µM (inactive)

// provenance: ChEMBL document CHEMBL1201862
